Measured GI50, drug alone values are reported for all entries that follow.
Test system: UO-31
Test: GI50, drug alone; higher = less potent
Conditions: treatment: drug alone; 5 days
Please give a number only; it is taken to be in µM.

Examples with answers:
molecule | target-or-system | GI50, drug alone / µM
COc1cc2c(Oc3ccc(NC(=O)C4(C(=O)Nc5ccc(F)cc5)CC4)cc3F)ccnc2cc1OCCCN1CCOCC1 | UO-31 | 2.91
CCN1CCN(C(=O)Cc2ccc(Nc3ncc(F)c(Nc4ccc(C(=O)Nc5ccccc5Cl)cc4)n3)cc2)CC1 [Aurora A Inhibitor I] | UO-31 | 9.23
Cc1n[nH]c2ccc(-c3cncc(OC[C@@H](N)Cc4ccccc4)c3)cc12 | UO-31 | 0.887

Consider the molecule CCN1CCN(c2ccc(Nc3cc(N(C)C(=O)Nc4c(Cl)c(OC)cc(OC)c4Cl)ncn3)cc2)CC1 [BGJ398 (NVP-BGJ398)] . State its measured GI50, drug alone. 7.58

Consider the molecule CC1(COc2ccc3c(c2)ncn3-c2ccc3cccc(N4CCC(N)CC4)c3n2)COC1 . State its measured GI50, drug alone. 1.37

Consider the molecule COc1ccc(-c2ccc3c(N4CCOC[C@@H]4C)nc(N4CCOC[C@@H]4C)nc3n2)cc1CO [AZD8055] . State its measured GI50, drug alone. 0.0691

Consider the molecule C=CC(=O)Nc1cccc(Sc2nc(Nc3ccc(N4CCN(C)CC4)cc3)ncc2Cl)c1 [WZ8040] . State its measured GI50, drug alone. 8.21

----------
Measured AUC of dose-response viability curve values are reported for all entries that follow.
Test system: ACHN
Assay: AUC of dose-response viability curve, drug + dasatinib, normalised to DMSO (arbitrary (AUC of normalised viability)); higher = less growth inhibition
Conditions: treatment: drug + dasatinib (fixed dose, not stated); 5 days
// no unit string in output, number only

Examples with answers:
compound | AUC of dose-response viability curve
N#CCNC(=O)c1ccc(-c2ccnc(Nc3ccc(N4CCOCC4)cc3)n2)cc1 [Cyt387] + Cc1nc(Nc2ncc(C(=O)Nc3c(C)cccc3Cl)s2)cc(N2CCN(CCO)CC2)n1 | 1.72
NC(=O)c1ccc(N(C(N)=O)c2c(F)cccc2F)nc1-c1ccc(F)cc1F [VX-702] + Cc1nc(Nc2ncc(C(=O)Nc3c(C)cccc3Cl)s2)cc(N2CCN(CCO)CC2)n1 | 1.87

Now consider the entry below.
Consider the compound CC(C)c1cnn2c(NCc3ccccc3)cc(NCCCCCCN)nc12.Cl [BS-181 HCl] + Cc1nc(Nc2ncc(C(=O)Nc3c(C)cccc3Cl)s2)cc(N2CCN(CCO)CC2)n1 . State its measured AUC of dose-response viability curve. 1.94

----------
Measured minimum viability across doses values are reported for all entries that follow.
Tested on: ACHN
Assay: minimum viability across doses, drug + dasatinib, relative to DMSO (fraction); higher = less growth inhibition
Conditions: treatment: drug + dasatinib (fixed dose, not stated); 5 days
// no unit string in output, number only

molecule | value-measured
CNC(=O)c1cc(Oc2ccc(NC(=O)Nc3cc(C(C)(C)C)nn3-c3ccc4ncccc4c3)c(F)c2)ccn1 [DCC-2036 (Rebastinib)] + Cc1nc(Nc2ncc(C(=O)Nc3c(C)cccc3Cl)s2)cc(N2CCN(CCO)CC2)n1 [dasatinib] | 0.0458

Now consider the entry below.
Give minimum viability across doses; test system ACHN; molecule O=C1NC(=O)C(c2ccccc2[N+](=O)[O-])=C1Nc1ccc(O)c(Cl)c1 + Cc1nc(Nc2ncc(C(=O)Nc3c(C)cccc3Cl)s2)cc(N2CCN(CCO)CC2)n1 [dasatinib] 0.506
